These entries and their values trace back to ChEMBL document CHEMBL3734697.

Experiment: AUC (0 to last) in C57BL/6J mouse at 1 mg/kg, iv by LC/MS/MS analysis
Assay type: ADME, organism-based
Design: dose 1 mg/kg, route intravenous, time 0 - last
Conditions: in vivo
RECORDED_METRIC: AUC(0-t) (ng·h/mL)
Give bare numbers, in ng·h/mL.

Sample Cc1cccc2c(=O)[nH]c3c(c12)COC(C(C)(C)CO)C3 (racemic) ; AUC(0-t) observed: 600

====

Test: Kinetic solubility of compound by LYSA
Type: physicochemical
Conditions: read-out: Kinetic_solubility
Please provide measured log10(solubility kinetic) for the entries that follow.
Answers are given as log10 of solubility kinetic in µg/mL.

Consider the reported log10(solubility kinetic) for these compounds:
>>> recorded_measurement("CC(C)C1Cc2[nH]c(=O)c3cccnc3c2CO1 (racemic)")
1.11
>>> recorded_measurement("O=C(C1COC1)N1CCC(C2Cc3[nH]c(=O)c4ccccc4c3CO2)CC1 (racemic)")
1.11
>>> recorded_measurement("CC(C)(CO)C1Cc2[nH]c(=O)c3ccccc3c2CO1 (racemic)")
1.82

Batch request: log10(solubility kinetic) for each of the following compounds.
1. CS(=O)(=O)N1CCC(C2Cc3[nH]c(=O)c4ccccc4c3CO2)C1 (racemic)
2. CC(C)C1Cc2[nH]c(=O)c3ccccc3c2CO1 (racemic)

Ans.
1.45
0.70

Sample Cc1cccc2c(=O)[nH]c3c(c12)COC(C(C)(C)CO)C3 (racemic) ; log10(solubility kinetic) observed: 0.60

====

Assay: Clearance in Wistar/Han rat at 0.5 mg/kg, iv administered as single bolus dose
Format: ADME, organism-based
Conditions: in vivo
RECORDED_METRIC: clearance (mL/min/kg)
Give bare numbers, in mL/min/kg.

>>> recorded_measurement("CC(C)C1Cc2[nH]c(=O)c3cccnc3c2CO1 (racemic)")
10
>>> recorded_measurement("CC(C)C1Cc2[nH]c(=O)c3ccccc3c2CO1 (racemic)")
37
>>> recorded_measurement("CS(=O)(=O)N1CCC(C2Cc3[nH]c(=O)c4ccccc4c3CO2)C1 (racemic)")
47
>>> recorded_measurement("Cc1cccc2c(=O)[nH]c3c(c12)COC(C(C)C)C3 (racemic)")
20

Alright, here's another molecule for you.
Sample CC(C)(C)C1Cc2[nH]c(=O)c3ccccc3c2CO1 (racemic) ; clearance observed: 2

====

Experiment: Clearance in C57BL/6J mouse at 1 mg/kg, iv by LC/MS/MS analysis
Type: ADME, organism-based
Conditions: in vivo
RECORDED_METRIC: clearance (mL/min/kg)
One number for each entry, in mL/min/kg.

Sample Cc1cccc2c(=O)[nH]c3c(c12)COC(C(C)(C)CO)C3 (racemic) ; clearance observed: 28

====

Assay: Solubility of compound in fed-state simulated intestinal fluid
Type: ADME
RECORDED_METRIC: solubility (µg/mL)
Give bare numbers, in µg/mL.

Sample Cc1cccc2c(=O)[nH]c3c(c12)COC(C(C)(C)CO)C3 (racemic) ; solubility observed: 143

====

Assay: Tmax in C57BL/6J mouse at 5 mg/kg, po by LC/MS/MS analysis
Type: ADME, organism-based
Conditions: in vivo
RECORDED_METRIC: Tmax (min)
Numbers only, in min.

Sample Cc1cccc2c(=O)[nH]c3c(c12)COC(C(C)(C)CO)C3 (racemic) ; Tmax observed: 15

====

Experiment: AUC (0 to last) in C57BL/6J mouse at 5 mg/kg, po by LC/MS/MS analysis
Format: ADME, organism-based
Parameters: dose 5 mg/kg, time 0 - last, route oral
Settings: in vivo
RECORDED_METRIC: AUC(0-t) (ng·h/mL)
Give bare numbers, in ng·h/mL.

Sample Cc1cccc2c(=O)[nH]c3c(c12)COC(C(C)(C)CO)C3 (racemic) ; AUC(0-t) observed: 1400

====

Test: Solubility of compound in fasted-state simulated intestinal fluid
Type: ADME
RECORDED_METRIC: solubility

Sample Cc1cccc2c(=O)[nH]c3c(c12)COC(C(C)(C)CO)C3 (racemic) ; solubility observed: 50 µg/mL

====

Assay: Cmax in C57BL/6J mouse at 5 mg/kg, po by LC/MS/MS analysis
Type: ADME, organism-based
Parameters: dose 5 mg/kg, route oral
Conditions: in vivo
RECORDED_METRIC: Cmax (ng/mL)
Numbers only, in ng/mL.

Sample Cc1cccc2c(=O)[nH]c3c(c12)COC(C(C)(C)CO)C3 (racemic) ; Cmax observed: 1600
